These molecules were tested on D(3) dopamine receptor (Homo sapiens); pKi is the recorded read-out.
Sequence (P35462 whole entry): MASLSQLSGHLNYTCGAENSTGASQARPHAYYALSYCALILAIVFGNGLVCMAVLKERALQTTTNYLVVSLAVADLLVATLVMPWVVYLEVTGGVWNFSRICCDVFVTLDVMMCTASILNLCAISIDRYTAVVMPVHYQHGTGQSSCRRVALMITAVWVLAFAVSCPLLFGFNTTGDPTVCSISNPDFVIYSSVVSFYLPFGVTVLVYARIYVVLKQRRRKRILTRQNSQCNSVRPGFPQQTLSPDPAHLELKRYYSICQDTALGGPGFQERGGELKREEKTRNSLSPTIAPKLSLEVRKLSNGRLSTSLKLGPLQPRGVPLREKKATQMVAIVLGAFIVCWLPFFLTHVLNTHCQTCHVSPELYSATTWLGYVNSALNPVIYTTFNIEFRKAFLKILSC
Just the number, please; pKi means minus log10 of the concentration in mol/L.

Request: # query: pKi of entry CN1CCO[C@@H]2c3cc4c(cc3CC[C@H]21)CCO4
Response: 7.10

Request: # query: pKi of entry CCCN(CCC)C1CCc2cc3c(cc2C1)OCC3 (configuration not stated)
Response: 7.90

Request: # query: pKi of entry CC(C)CN1CCO[C@@H]2c3cc4c(cc3CC[C@H]21)CCO4
Response: 6.90

Request: # query: pKi of entry CCCN1CCC[C@@H]2c3cc4c(cc3CC[C@H]21)CCO4
Response: 7.60

Request: # query: pKi of entry c1c2c(cc3c1CC[C@H]1NCCO[C@H]31)OCC2
Response: 6.70

---

Biological target: D(2) dopamine receptor (Homo sapiens, UniProt P14416)
Sequence (P14416 whole entry): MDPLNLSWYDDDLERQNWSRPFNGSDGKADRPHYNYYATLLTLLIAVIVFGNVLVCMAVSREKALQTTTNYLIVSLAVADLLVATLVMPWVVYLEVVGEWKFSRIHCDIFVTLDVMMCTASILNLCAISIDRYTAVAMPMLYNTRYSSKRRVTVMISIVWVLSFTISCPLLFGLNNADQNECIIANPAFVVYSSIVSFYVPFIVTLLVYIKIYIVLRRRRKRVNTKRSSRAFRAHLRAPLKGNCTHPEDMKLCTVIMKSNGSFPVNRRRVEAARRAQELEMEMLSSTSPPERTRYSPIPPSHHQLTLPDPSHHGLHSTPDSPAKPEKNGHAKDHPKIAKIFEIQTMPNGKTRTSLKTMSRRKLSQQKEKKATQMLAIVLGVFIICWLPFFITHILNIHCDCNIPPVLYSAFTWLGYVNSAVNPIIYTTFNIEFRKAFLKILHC
Assay type: cell membranes, CHO
pKi: −log10 of the molar value.
# label = t if pKi >= 6 else f

CC(C)CN1CCO[C@@H]2c3cc4c(cc3CC[C@H]21)CCO4	f
CCCN(CCC)C1CCc2cc3c(cc2C1)OCC3 (centres undefined)	t
CCCN1CCO[C@H]2c3cc4c(cc3OC[C@H]21)CCO4	f

Request: API: above_or_equal(metric=pKi, cutoff=6) for item CN1CCO[C@@H]2c3cc4c(cc3CC[C@H]21)CCO4
Response: t

Request: API: above_or_equal(metric=pKi, cutoff=6) for item CCCN1CCO[C@@H]2c3cc4c(cc3CC[C@H]21)CCO4
Response: t

Request: API: above_or_equal(metric=pKi, cutoff=6) for item c1ccc(CCN2CCO[C@@H]3c4cc5c(cc4CC[C@H]32)CCO5)cc1
Response: f

Request: API: above_or_equal(metric=pKi, cutoff=6) for item c1ccc(CN2CCO[C@@H]3c4cc5c(cc4CC[C@H]32)CCO5)cc1
Response: f

Request: API: above_or_equal(metric=pKi, cutoff=6) for item CCCN1CCC[C@@H]2c3cc4c(cc3CC[C@H]21)CCO4
Response: t
